# MEASURED ON: human A-beta(1-40) peptide, monomeric (BAM) (human, biotin at the C-terminus in capture ELISA, SPR and TR-FRET; not biotinylated where coated directly (Example 7))
# ASSAY INFO: cell-based or functional assay
Would you mind telling me the reported inhibition of peptide aggregation (ThT fluorescence), 28 µM VHH of each entry?
I only need the number, in %, no unit after it.

Dear colleague, I am looking for the recorded inhibition of peptide aggregation (ThT fluorescence), 28 µM VHH of the following binder: ABII14D4 (VHH) VHH: EVQLVESGGGLVQAGGSLRLSCAASGRTFSTYNMAWFRHAPGKEREFVAAISRSGGSTYYVDSVKGRFTISRDNAKNTVYLQMNSLKPEDTAIYYCAAAPRGRSIVTTATYDYWGQGTQVTVSS 78

And the next one, ABII42B10 (VHH) VHH: EVQLVESGGGLVQRGGSLRLSCAASGRTFSNLNMGWFRQAPGKEREFQAAISRSGGTTYYADSVKGRFTISRDNAKSTVFLQMNSLKPEDTAVYYCAAASPGGPINYGRAYDSWGQGTQVTVSS ? 77

And the next one, ABII35G2 (VHH) VHH: EVQLVESGGGLVQAGGSLRLSCVASGRTFSNYGMGWFRQAPGKDREFVAAISRSGGTTYYEDDVKGRFTISRDNAKNSVYLQMNSLKPEDTAVYYCAARPSYVAVNIAASYNNWGQGTQVTVSS ? 76

And the next one, ABII35D2 (VHH) VHH: EVQLVESGGGLVQAGGSLRLSCVASGLTFSSYNMGWFRQAPGKEREFVAAISRSGGSTYYTDSVKGRFTISRDSSKNTVYLQMNSLKPEDTADYYCAAALFGSAINLLSEYRYWGQGTQVTVSS ? 73
